biological target: Glutamate receptor 2 (Rattus norvegicus, UniProt P19491); assay: Displacement of [3H]AMPA from rat GluA2(Q) receptor flop isoform by TopCount method
Sequence (P19491 whole entry, canonical isoform): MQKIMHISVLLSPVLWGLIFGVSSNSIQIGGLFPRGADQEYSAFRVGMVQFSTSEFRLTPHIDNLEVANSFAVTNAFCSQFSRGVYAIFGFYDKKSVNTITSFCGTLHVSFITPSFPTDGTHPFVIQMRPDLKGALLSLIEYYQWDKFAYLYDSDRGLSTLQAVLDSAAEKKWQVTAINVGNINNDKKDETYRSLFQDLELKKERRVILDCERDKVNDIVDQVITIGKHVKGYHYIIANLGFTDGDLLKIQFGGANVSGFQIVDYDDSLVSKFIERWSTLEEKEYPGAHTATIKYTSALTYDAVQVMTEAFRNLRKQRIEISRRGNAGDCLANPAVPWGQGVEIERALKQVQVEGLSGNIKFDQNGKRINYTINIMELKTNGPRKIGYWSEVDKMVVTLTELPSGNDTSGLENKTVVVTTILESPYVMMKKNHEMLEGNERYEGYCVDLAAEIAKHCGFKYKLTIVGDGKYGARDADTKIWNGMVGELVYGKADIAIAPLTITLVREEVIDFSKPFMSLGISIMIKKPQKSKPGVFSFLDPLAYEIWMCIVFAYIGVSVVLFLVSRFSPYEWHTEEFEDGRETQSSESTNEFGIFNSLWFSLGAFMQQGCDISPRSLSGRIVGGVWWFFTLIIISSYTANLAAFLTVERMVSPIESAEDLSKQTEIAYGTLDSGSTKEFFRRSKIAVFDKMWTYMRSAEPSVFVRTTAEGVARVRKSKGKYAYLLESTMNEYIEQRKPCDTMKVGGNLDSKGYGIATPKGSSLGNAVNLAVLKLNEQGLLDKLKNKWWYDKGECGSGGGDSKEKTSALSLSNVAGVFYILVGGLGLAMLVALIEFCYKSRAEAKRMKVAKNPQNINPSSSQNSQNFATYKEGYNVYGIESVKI
readout_kind: Ki (nM)
Numbers only; they are read as nM.

// Ki lookup, key: `N[C@H](Cc1cc(-c2cc(O)ccc2O)c(Cl)c([N+](=O)[O-])c1)C(=O)O`
1740

###

experiment: Displacement of [3H]AMPA from AMPA receptor in rat brain membranes by scintillation counting method; format: cell membranes, Membrane
readout_kind: pKi
Write no unit; give the number alone.

Value lookup for pKi; key = NC(Cc1cc(-c2cc(O)cc(F)c2)c(Cl)c([N+](=O)[O-])c1)C(=O)O (racemic)
5.47

pKi lookup needed for NC(Cc1cc(-c2ccc(O)cc2)cc([N+](=O)[O-])c1)C(=O)O (racemic) , thanks.
4.68

Requested read-out: pKi. Entry: NC(Cc1cc(Cl)c(O)c(-c2cccc(O)c2)c1)C(=O)O (racemic)
5.1

Using the record for NC(Cc1cc(-c2cccc(O)c2)c(Cl)c([N+](=O)[O-])c1)C(=O)O (racemic) , report its pKi.
5.52

Which pKi value is on record for NC(Cc1ccc([N+](=O)[O-])c(-c2cccc(O)c2)c1)C(=O)O (racemic) ?
4.67

Fill in the blank: the reported pKi of Nc1c(Cl)cc(CC(N)C(=O)O)cc1-c1cccc(O)c1 (racemic) is ____.
4.99

Consider the compound Nc1ccc(CC(N)C(=O)O)cc1-c1cccc(O)c1 (racemic) and give its measured pKi.
5.05

Value lookup for pKi; key = NC(Cc1cc(Cl)cc(-c2ccc(O)cc2)c1)C(=O)O (racemic)
4.34

Quick one: pKi for NC(Cc1ccc(Cl)c(-c2ccc(O)cc2)c1)C(=O)O (racemic) ?
4.19

Can you share its pKi? I mean this compound: NC(Cc1cc(-c2cccc(O)c2)cc([N+](=O)[O-])c1)C(=O)O (racemic)
5.09

// query pKi value for entry NC(Cc1cc(-c2cncc(O)c2)c(Cl)c([N+](=O)[O-])c1)C(=O)O (racemic)
5.7

Report pKi for NC(Cc1cc(-c2cc(O)ccc2O)c(Cl)c([N+](=O)[O-])c1)C(=O)O (racemic) please.
6.04

Look up pKi: NC(Cc1cc(Cl)cc(-c2cccc(O)c2)c1)C(=O)O (racemic)
5.06

For the compound Nc1c(-c2cccc(O)c2)cc(CC(N)C(=O)O)cc1[N+](=O)[O-] (racemic) , what pKi is on record?
4.84

Look at this compound and give its reported pKi. NC(Cc1ccc([N+](=O)[O-])c(-c2ccc(O)cc2)c1)C(=O)O (racemic)
4.2

Consider the compound shown here: NC(Cc1ccc(Cl)c(-c2cccc(O)c2)c1)C(=O)O (racemic) What is its recorded pKi?
5.04

Would you mind telling me what pKi value was observed for NC(Cc1cc(-c2ccc(O)cc2)c(Cl)c([N+](=O)[O-])c1)C(=O)O (racemic) ?
4.66
